Assignment: determine reported EC50 for the given compounds.
- subject_of_test: human TLR7 (Homo sapiens)
- Sequence (Q9NYK1 27-1049): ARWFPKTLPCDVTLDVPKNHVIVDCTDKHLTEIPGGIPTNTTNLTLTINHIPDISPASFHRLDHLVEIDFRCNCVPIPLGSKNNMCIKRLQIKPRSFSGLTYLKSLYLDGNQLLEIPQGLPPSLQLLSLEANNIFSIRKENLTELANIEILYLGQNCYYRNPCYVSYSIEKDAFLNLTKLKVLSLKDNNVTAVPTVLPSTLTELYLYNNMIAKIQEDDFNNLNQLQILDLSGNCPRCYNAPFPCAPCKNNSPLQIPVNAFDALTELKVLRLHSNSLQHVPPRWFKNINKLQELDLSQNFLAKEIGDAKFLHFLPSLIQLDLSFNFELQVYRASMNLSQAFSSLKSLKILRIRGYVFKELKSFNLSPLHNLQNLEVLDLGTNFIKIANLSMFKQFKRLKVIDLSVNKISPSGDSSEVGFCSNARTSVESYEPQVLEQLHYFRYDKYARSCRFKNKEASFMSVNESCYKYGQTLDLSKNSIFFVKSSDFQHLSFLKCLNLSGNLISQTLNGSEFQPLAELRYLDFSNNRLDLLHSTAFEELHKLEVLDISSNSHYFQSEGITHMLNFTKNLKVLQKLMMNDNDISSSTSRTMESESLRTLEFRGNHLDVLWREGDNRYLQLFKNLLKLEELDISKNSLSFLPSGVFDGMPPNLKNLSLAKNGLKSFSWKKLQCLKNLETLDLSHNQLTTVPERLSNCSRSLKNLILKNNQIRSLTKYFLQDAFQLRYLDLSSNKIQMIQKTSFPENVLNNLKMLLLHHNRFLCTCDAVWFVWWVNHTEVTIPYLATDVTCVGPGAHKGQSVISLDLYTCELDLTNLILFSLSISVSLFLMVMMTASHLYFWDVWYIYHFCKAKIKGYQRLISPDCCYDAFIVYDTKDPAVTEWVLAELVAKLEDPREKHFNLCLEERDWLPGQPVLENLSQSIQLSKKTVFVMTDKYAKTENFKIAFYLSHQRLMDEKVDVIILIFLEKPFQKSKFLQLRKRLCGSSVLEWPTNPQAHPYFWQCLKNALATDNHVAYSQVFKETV
- test_protocol: Human TLR7 reporter assay (NF-kB-SEAP in HEK293 cells)
- applied_conditions: HEK293 cells stably carrying human TLR7 plasmid and NF-kB-SEAP reporter plasmid; 20 hours culture; 1 nM-10 μM; absorbance 405 nm; read-out: Human TLR7 binding activity (EC50)
Numbers only, in µM.

structure_notation: CCCCOc1nc(N)c2[nH]c(=O)n(Cc3ccc(OCCCCN(CCCN4CCOCC4)Cc4cccc(CC(=O)OC)c4)nc3)c2n1
EC50 [µM]: 0.0207
--
structure_notation: CCCCOc1nc(N)c2[nH]c(=O)n(Cc3ccc(OCCCCNCc4cccc(CC(=O)OC)c4)nc3)c2n1
EC50 [µM]: 0.0091
--
structure_notation: CCCCOc1nc(N)c2[nH]c(=O)n(Cc3ccc(CN(C)CCOc4cccc(CC(=O)OC)c4)cc3)c2n1
EC50 [µM]: 0.0283
--
structure_notation: CCCCOc1nc(N)c2[nH]c(=O)n(Cc3ccc(OCCCNCc4cccc(CC(=O)OC)c4)cc3)c2n1
EC50 [µM]: 0.0204
--
structure_notation: CCCCOc1nc(N)c2[nH]c(=O)n(Cc3ccc(OCCCCN(C)Cc4cccc(CC(=O)OC)c4)nc3)c2n1
EC50 [µM]: 0.0094
--
structure_notation: CCCCOc1nc(N)c2[nH]c(=O)n(Cc3ccc(CN(C)CCOc4cc(CC(=O)OC)ccc4OC)cc3)c2n1
EC50 [µM]: 0.021

Items follow; give EC50 for each.
1. CCCCOc1nc(N)c2[nH]c(=O)n(Cc3ccc(CN(CCCN4CCOCC4)Cc4cccc(CC(=O)OC)c4)cc3)c2n1
2. CCCCOc1nc(N)c2[nH]c(=O)n(Cc3ccc(CN(CCCO)Cc4cccc(CC(=O)OC)c4)cc3)c2n1
3. CCCCOc1nc(N)c2[nH]c(=O)n(Cc3ccc(OCCCN(C)Cc4cccc(CC(=O)OC)c4)cc3)c2n1
4. COCCOc1nc(N)c2[nH]c(=O)n(Cc3ccc(CN(C)CCOc4cccc(CC(=O)OC)c4)cc3)c2n1
5. CCCCOc1nc(N)c2[nH]c(=O)n(Cc3ccc(OCCCCN(C)Cc4cccc(CC(=O)O)c4)nc3)c2n1
6. CCCCOc1nc(N)c2[nH]c(=O)n(Cc3ccc(CN(CCCN4CCOCC4)Cc4cccc(CC(=O)O)c4)cc3)c2n1

Response:
0.0241
0.0408
0.026
0.0515
0.0296
0.253
